Molecular target: UniProtKB Q9NR97
Sequence (Q9NR97 27-1041): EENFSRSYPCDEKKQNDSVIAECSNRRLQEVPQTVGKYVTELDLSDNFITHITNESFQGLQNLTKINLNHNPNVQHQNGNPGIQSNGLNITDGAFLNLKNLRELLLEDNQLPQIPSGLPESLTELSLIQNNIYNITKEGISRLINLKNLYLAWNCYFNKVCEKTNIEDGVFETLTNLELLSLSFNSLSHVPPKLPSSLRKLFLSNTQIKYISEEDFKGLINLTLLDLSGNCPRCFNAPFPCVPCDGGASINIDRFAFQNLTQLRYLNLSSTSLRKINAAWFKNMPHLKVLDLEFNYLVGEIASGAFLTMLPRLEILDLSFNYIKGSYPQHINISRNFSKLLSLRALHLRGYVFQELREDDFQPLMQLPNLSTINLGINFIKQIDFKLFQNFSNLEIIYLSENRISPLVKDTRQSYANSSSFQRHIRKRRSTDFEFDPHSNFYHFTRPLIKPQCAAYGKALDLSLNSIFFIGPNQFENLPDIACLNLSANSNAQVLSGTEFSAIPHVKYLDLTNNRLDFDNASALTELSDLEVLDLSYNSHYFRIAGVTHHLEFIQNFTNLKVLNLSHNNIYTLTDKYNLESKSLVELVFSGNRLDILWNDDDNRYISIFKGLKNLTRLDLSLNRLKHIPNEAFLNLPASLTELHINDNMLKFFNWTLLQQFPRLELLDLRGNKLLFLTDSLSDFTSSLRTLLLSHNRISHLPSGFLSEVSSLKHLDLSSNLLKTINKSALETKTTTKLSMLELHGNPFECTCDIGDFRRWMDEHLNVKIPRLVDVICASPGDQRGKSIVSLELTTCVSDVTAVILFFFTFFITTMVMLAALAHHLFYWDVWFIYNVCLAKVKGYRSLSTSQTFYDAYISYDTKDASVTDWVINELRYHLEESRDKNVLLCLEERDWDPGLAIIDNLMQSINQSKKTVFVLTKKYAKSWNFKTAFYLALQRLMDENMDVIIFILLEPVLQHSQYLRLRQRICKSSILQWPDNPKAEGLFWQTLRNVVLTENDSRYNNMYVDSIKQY
Test: HEK-Blue human TLR8 cells, NF-κB SEAP reporter assay
Details: 20 hours stimulation
Value type: EC50 (nM)

These recorded examples may help you get a feel for the data.
- CCCN(CCC)C(=O)C1=Cc2ccc(C3=NCc4cc(Cl)ccc4N3)cc2N=C(N)C1 [Example 8]: 6
- CCCN(CCC)C(=O)C1=Cc2ccc(C3=NCc4ccc(Cl)cc4N3)cc2N=C(N)C1 [Example 6]: 9

a. CCCN(CCC)C(=O)C1=Cc2ccc(C3=NC(C)(C)c4ccccc4N3)cc2N=C(N)C1 [Example 7]
b. CCCN(CCC)C(=O)C1=Cc2ccc(C3=NCc4ccncc4N3)cc2N=C(N)C1 [Example 2]
c. CCCN(CCC)C(=O)C1=Cc2ccc(C3=NCc4cc(OC)ccc4N3)cc2N=C(N)C1 [Example 11]
Sequence the entries by EC50, beginning with the highest number. Lab note: final answer is the ordered label list. a, b, c
